- Test system: aptamer # 3_7(1-79) (DNA, aptamer) ATACCAGCTTATTCAATTGGTGGTAGGATGGGCTCGATCGAGGTCTTCAGTCGGCTCGGTTTAGTTTATGTTCTCCTGT
- EXPERIMENT DESCRIPTION: bead fluorescence release assay
- ASSAY CONTEXT: 100 mM Na+, 5 mM K+, 2 mM Mg2+, 1 mM Ca2+; 20 mM Tris-HCl pH 7.6, 21 °C; 1 mM compound; release from capture oligo iODN2Sp; single concentration
Reported amount of eluted aptamer DNA values for the following molecules.
Kindly answer with a numeric value in pmol, unit omitted.

Previously resolved entries follow.
Answer with the recorded amount of eluted aptamer DNA for the molecule listed here: NC[C@H]1O[C@H](O[C@H]2[C@H](O)[C@@H](O[C@H]3O[C@H](CO)[C@@H](O)[C@H](N)[C@H]3O)[C@H](N)C[C@@H]2N)[C@H](O)[C@@H](O)[C@@H]1O
10.44

Answer with the recorded amount of eluted aptamer DNA for the molecule listed here: NC[C@H]1O[C@H](O[C@H]2[C@H](O)[C@@H](O[C@H]3O[C@H](CO)[C@@H](O)[C@H](N)[C@H]3O)[C@H](N)C[C@@H]2N)[C@H](N)[C@@H](O)[C@@H]1O
8.04

Answer with the recorded amount of eluted aptamer DNA for the molecule listed here: CN[C@@H]1[C@@H](O[C@H]2O[C@H](CO)[C@@H](N)[C@H](O)[C@H]2O)O[C@H]2C[C@@H](N)[C@@H](O[C@H]3[C@H](O)[C@@H](O)[C@H](N)C[C@@H]3N)O[C@@H]2[C@@H]1O
1.68

Okay, next one:
Answer with the recorded amount of eluted aptamer DNA for the molecule listed here: NC[C@H]1O[C@H](O[C@H]2[C@H](O)[C@@H](O[C@H]3O[C@H](CO)[C@@H](O)[C@H](N)[C@H]3O)[C@H](N)C[C@@H]2N)[C@H](N)C[C@@H]1O
1.91

Each recorded value in this set is attributed to paper PMC3958260.
